Data origin, for the record: patent US20190352297A1

system name: Aurora C (Homo sapiens)
Sequence (Q9UQB9 1-309): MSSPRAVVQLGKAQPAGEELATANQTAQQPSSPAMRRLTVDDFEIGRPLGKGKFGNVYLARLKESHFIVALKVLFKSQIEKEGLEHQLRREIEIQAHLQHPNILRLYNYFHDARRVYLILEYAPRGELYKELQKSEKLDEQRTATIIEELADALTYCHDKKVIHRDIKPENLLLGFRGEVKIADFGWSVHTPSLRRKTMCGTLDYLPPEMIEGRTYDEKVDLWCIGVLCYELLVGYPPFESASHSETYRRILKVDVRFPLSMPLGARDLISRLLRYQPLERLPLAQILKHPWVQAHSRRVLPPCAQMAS
assay overview: Active site directed binding competition assay, KD (DiscoveRx)
parameter: Kd (µM)
Give your result in µM as a bare value.

Return reported Kd; argument: CCc1ccc(N=C2SC(=Cc3ccnc(Nc4ccc(C(=O)O)cn4)c3)C(=O)N2C)cc1
0.011
